- SYSTEM_NAME: T1, TFAM (no MTS) (Homo sapiens, UniProt Q00059 43-246)
- T1 sequence: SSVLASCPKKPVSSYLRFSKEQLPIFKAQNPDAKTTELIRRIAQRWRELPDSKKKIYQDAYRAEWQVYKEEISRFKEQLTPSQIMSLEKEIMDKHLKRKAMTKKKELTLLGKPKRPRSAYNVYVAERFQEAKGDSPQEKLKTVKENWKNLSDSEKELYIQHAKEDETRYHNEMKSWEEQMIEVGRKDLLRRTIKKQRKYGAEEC
- PROTOCOL_NOTES: fluorescence anisotropy; +UVC; Hill n 2.12±0.28; FP: 25 mM HEPES, 10 mM Mg(OAc)2, 25 mM NaOAc, 75 mM KOAc, pH 7.5, 1 nM DNA, TFAM 0-15 nM diluted on ice (read temperature not stated); AFM oligos: on ice, 2 min
- CONDITION_LABEL: protein: recombinant; label: 5' 6-FAM on strand 1; blunt
MEASUREMENT_LABEL: Kd (nM)
Numbers only, in nM.

In: I have this binder here, COX1_27 +UVC (dsDNA, UVC 1500 J/m2 photolesions (positions undefined)) DNA 1: AAGACATTGGAACACTATACCTATTATTCGGCG DNA 2: CGCCGAATAATAGGTATAGTGTTCCAATGTCTT , and I need its recorded Kd.
Out: 5.9

Entry source: paper PMC13016609
